Test system: OVCAR-3 ovarian
Assay: NCI tumour cell line growth inhibition, 48 h
quantityKind: TGI

1) COC1CC(OC(=O)c2ccccc2)C(OC(=O)c2ccccc2)C(C)O1 (stereo unspecified) :: > 100 µM
2) Cc1nn(-c2ccccc2)c(-c2ccccc2[N+](=O)[O-])c1CC#N :: > 100 µM
3) CCOC(=O)CC1NC(=O)CS1 (stereo unspecified) :: > 100 µM
4) CC(C)OP(=O)(OC(C)C)C(C(C)C)N(C)/C(F)=N/C(F)(F)F (stereo unspecified) :: > 100 µM
5) CN(C)C(=O)O[C@@H]1CN[C@@H](C#Cc2cc3ncnc(Nc4ccc(OCc5cccc(F)c5)c(Cl)c4)c3s2)C1 :: > 25 µM
6) OCC1OC(n2cnc3c(/C=C(/O)c4ccccc4)ncnc32)C(O)C1O (stereo unspecified) :: > 100 µM
